# System Name: T1, human α-CGRP 1-37 (WT) (human, C-terminal amide; N-terminal biotin when captured on the SA chip; 125I-labelled in the radioligand assay)
# T1 construct: also called α-human
# T1 peptide: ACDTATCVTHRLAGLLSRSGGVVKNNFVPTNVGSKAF
# Assay Summary: Biacore, 37°C, Fab over CGRP on SA chip

# Binder, koff
measured = [
    ("G1 variant M35 Fab (Fab, V domains shown, Fab; constant domains as m1) VH: EVQLVESGGGLVQPGGSLRLSCAASGFTFSNYWISWVRQAPGKGLEWVAEIRSKSDSSATHYAEAVKGRFTISRDNAKNSLYLQMNSLRAEDTAVYYCTVYFDYGLAIQNYWGQGTLVTVSS VL: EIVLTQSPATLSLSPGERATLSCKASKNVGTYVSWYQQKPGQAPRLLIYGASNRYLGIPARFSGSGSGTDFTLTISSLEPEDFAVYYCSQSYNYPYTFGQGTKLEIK", "0.000339 s⁻¹"),
    ("G1 variant M11 Fab (Fab, V domains shown, Fab; constant domains as m1) VH: EVQLVESGGGLVQPGGSLRLSCAASGFTFSNYWISWVRQAPGKGLEWVAEIRSESDASATHYAEAVKGRFTISRDNAKNSLYLQMNSLRAEDTAVYYCSTYFDYGLAIQNYWGQGTLVTVSS VL: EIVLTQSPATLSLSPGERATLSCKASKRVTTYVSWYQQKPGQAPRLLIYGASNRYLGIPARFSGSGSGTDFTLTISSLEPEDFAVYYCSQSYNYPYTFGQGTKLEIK", "0.000283 s⁻¹"),
]
